Experiment: A quantitative high throughput screen for small molecules that induce DNA re-replication in MCF 10a normal breast cells. Also: nearly all actives have a fitted effect of over 50% in size.
Details: MCF 10A DNA re-replication, Hoechst nuclear intensity, 48 h; series mostly up to 46.1 µM
Among all 350,000 compounds or so, about 9,900 (2.8%) were called active. Roughly 15% stayed inconclusive and do not appear here. Calls follow the shape of the dose curve; as a rule, active = well fitted activation curve with a large enough effect; inconclusive = small, poorly fitted or top-dose-only effect; inactive = no such curve, though single readings can be large or run the other way. The sample holds actives, similar compounds and a random draw of the others, so the mix is not that of the screen.
Outcome field: choose from active, inactive

Would you please look over these solved cases?
Please indicate how the test categorized CC(=O)N/N=C/c1cc2c(cc1[N+](=O)[O-])OCO2 .
inactive

What do you have for CCN(CC)c1ccc(/C=N/Nc2nc(C)cc(C)n2)c(O)c1 ?
active

What do we get for CCN(CC)c1ccc(/C=N/NC(=O)c2cnccn2)c(O)c1 ?
active

Note, next up: Cc1ccc(C(=O)NCCNC(=O)c2cnccn2)cc1
inactive

What do you have for Nc1ncnc2c1ncn2[C@@H]1O[C@H](CNS(=O)(=O)c2ccc(-c3ccno3)s2)[C@@H](O)[C@H]1O ?
inactive

Then this compound: O=C(CSc1nc2[nH]c(=O)[nH]c(=O)c2s1)Nc1cccc(F)c1
inactive

Further cases:
Could you please tell me the result logged for Cc1ccc(-c2n[nH]c(=S)n2/N=C/c2cc3c(cc2[N+](=O)[O-])OCO3)cc1 in this assay?
inactive

Then O=C(CCN1CCCCC1)N=Nc1c(O)[nH]c2ccccc12 ?
active
